src = BigSolDB 2.1

Settings: in n-butanol, 303.2 K
Measured Property: solubility (mole fraction)
When you answer, write just the number.

// recorded solubility (mole fraction) for C[C@H]1[C@H](C)CC[C@]2(C(=O)O)CC[C@]3(C)C(=CC[C@@H]4[C@@]5(C)CC[C@H](O)C(C)(C)[C@@H]5CC[C@]43C)[C@H]12 : 0.00387

---

Conditions: in n-butanol, 278.2 K
Measured Property: solubility (mole fraction)
Answer as a number with no unit attached.

# compound C[C@H]1[C@H](C)CC[C@]2(C(=O)O)CC[C@]3(C)C(=CC[C@@H]4[C@@]5(C)CC[C@H](O)C(C)(C)[C@@H]5CC[C@]43C)[C@H]12 ; its solubility (mole fraction) = 0.00153

---

Conditions: in MTBE, 308.2 K
Measured Property: solubility (mole fraction)
Reply: number alone, nothing else.

Quick note, solubility (mole fraction) for C[C@H]1[C@H](C)CC[C@]2(C(=O)O)CC[C@]3(C)C(=CC[C@@H]4[C@@]5(C)CC[C@H](O)C(C)(C)[C@@H]5CC[C@]43C)[C@H]12 landed at 0.00311

---

Conditions: in MTBE, 288.2 K
Measured Property: solubility (mole fraction)

For record C[C@H]1[C@H](C)CC[C@]2(C(=O)O)CC[C@]3(C)C(=CC[C@@H]4[C@@]5(C)CC[C@H](O)C(C)(C)[C@@H]5CC[C@]43C)[C@H]12 the listed solubility (mole fraction) is 0.0021

---

Settings: in n-butanol, 288.2 K
Measured Property: solubility (mole fraction)
Keep it simple and answer with nothing but the number.

solubility (mole fraction) reported for this molecule C[C@H]1[C@H](C)CC[C@]2(C(=O)O)CC[C@]3(C)C(=CC[C@@H]4[C@@]5(C)CC[C@H](O)C(C)(C)[C@@H]5CC[C@]43C)[C@H]12 : 0.00226

---

Settings: in MIBK, 303.2 K
Measured Property: solubility (mole fraction)
Respond using a number only.

solubility (mole fraction) recorded for this molecule, C[C@H]1[C@H](C)CC[C@]2(C(=O)O)CC[C@]3(C)C(=CC[C@@H]4[C@@]5(C)CC[C@H](O)C(C)(C)[C@@H]5CC[C@]43C)[C@H]12 , is 0.00128

---

Details: in n-butanol, 298.2 K
Measured Property: solubility (mole fraction)
Output: the number by itself.

Documented solubility (mole fraction) of C[C@H]1[C@H](C)CC[C@]2(C(=O)O)CC[C@]3(C)C(=CC[C@@H]4[C@@]5(C)CC[C@H](O)C(C)(C)[C@@H]5CC[C@]43C)[C@H]12 : 0.00334
